The values you see were collected from the supplement of paper PMC10567573.

B1: CLINT1 (parent)
chain: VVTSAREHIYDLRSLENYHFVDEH

variants of: B1; test: protein stability index of a GFP-peptide fusion (GPS, HEK-293T) (PSI 1-6); higher = more stable; settings: c terminus: a fixed tail appended;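 further: lentivirally expressed fusions sorted by FACS into six bins by GFP to DsRed ratio, PSI derived from sequencing read proportions per bin multiplied by bin number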
Recorded Metric: protein stability index
# respond with the number and nothing more

Worked set:
VVCSAREHIYDLRSLENYHFVDEH [T3C] = 2.29
VVTSAREHIYDARSLENYHFVDEH [L12A] = 3.42
VVTSAREHIYDLRSLENYHFVDEC [H24C] = 2.3
VVTSATEHIYDLRSLENYHFVDEH [R6T] = 2.75
VVTSAREHIYDTRSLENYHFVDEH [L12T] = 3.99

// below: protein stability index requested for another variant
Problem: Let me know recorded protein stability index for VVTSAREHIYDLGSLENYHFVDEH [R13G] , thanks.
Solution: 2.7
